Each recorded value in this set is attributed to ChEMBL document CHEMBL5331057.

biological target: UniProt:O14980; assay: Inhibition of XPO1 in human HPBALL cells; format: cell-based
Sequence (O14980 whole entry): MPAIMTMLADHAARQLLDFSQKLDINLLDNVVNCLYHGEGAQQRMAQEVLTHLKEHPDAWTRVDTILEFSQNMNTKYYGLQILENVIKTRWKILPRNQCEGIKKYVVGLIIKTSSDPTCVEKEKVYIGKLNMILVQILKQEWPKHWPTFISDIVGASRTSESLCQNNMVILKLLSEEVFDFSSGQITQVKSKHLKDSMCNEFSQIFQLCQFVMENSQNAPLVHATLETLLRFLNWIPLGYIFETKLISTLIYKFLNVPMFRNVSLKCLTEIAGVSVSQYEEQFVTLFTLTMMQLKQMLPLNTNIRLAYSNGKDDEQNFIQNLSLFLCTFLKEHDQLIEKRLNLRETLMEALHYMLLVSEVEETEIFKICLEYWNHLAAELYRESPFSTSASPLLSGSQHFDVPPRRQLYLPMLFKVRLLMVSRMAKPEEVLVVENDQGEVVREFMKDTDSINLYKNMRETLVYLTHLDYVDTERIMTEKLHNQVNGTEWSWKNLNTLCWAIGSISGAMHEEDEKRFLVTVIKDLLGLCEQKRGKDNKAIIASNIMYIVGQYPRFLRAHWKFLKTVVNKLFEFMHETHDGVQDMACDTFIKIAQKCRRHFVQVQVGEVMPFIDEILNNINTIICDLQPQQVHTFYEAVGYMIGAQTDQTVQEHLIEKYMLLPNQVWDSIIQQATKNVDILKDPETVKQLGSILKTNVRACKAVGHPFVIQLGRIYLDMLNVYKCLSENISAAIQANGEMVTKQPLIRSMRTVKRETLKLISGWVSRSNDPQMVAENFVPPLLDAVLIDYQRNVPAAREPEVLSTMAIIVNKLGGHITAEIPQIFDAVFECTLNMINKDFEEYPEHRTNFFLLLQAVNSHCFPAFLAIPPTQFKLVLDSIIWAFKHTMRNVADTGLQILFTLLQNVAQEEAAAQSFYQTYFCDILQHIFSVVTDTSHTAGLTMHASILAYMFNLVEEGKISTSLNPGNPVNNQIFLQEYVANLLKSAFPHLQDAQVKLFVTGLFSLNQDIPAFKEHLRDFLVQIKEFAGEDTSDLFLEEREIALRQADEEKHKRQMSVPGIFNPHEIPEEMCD
Property Measured: pIC50
The read-out pIC50 is expressed as -log10 of concentration in moles per litre.

Please look at this molecule and report its pIC50: `COc1cc(-c2ncn(/C=C\C(=O)OC(C)C)n2)cc(C(F)(F)F)c1` 7.80

---

biological target: Methionine synthase (Homo sapiens, UniProt Q99707)
Sequence (Q99707 whole entry): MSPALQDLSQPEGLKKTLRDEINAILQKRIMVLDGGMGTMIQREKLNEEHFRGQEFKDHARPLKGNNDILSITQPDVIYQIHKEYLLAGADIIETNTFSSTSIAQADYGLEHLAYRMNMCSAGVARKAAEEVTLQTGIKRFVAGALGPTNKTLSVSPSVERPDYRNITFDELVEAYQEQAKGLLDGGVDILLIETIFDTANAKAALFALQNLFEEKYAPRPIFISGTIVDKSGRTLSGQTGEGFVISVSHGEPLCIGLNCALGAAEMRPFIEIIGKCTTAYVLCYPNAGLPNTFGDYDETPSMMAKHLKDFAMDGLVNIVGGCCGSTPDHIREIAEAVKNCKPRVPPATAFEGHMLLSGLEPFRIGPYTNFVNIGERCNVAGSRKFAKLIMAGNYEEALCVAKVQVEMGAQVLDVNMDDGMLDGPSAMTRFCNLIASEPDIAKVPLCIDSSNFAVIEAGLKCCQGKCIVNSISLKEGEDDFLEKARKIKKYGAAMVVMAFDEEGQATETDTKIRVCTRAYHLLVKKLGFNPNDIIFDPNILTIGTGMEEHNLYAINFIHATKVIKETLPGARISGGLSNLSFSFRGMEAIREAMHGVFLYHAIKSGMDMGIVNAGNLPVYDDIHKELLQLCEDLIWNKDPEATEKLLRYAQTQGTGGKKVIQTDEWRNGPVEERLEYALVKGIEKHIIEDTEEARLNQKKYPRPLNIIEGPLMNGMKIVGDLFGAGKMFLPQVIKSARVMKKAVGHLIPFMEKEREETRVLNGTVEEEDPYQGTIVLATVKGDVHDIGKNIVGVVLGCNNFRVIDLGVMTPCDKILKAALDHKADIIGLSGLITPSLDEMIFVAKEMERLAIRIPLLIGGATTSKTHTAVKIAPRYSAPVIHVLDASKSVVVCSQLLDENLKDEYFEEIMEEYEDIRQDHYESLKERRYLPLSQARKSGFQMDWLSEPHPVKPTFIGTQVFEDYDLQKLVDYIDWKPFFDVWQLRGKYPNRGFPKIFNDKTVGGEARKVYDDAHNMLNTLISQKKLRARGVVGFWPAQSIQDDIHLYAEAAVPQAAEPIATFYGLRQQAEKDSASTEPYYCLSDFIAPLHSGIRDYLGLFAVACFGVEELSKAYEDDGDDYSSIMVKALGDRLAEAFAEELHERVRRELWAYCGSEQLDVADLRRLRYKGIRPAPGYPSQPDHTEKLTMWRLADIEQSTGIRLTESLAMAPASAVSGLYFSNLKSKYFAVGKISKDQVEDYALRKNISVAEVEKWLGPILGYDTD
Property Measured: pIC50
The read-out pIC50 is expressed as -log10 of concentration in moles per litre.

Please look at this compound and report its pIC50: O=C(NC1CCN(CCCCC2(C(=O)NCC(F)(F)F)c3ccccc3-c3ccccc32)CC1)c1ccccc1-c1ccc(C(F)(F)F)cc1 [LOMITAPIDE] 9.30
